The measurements presented in this section are drawn from patent US9302999B2.

Please go through the items and note down their Barnyardgrass plant response rating.
tested on: barnyardgrass (Echinochloa crus-galli); test: Test A pre-/postemergence: barnyardgrass; type: in vivo; conditions: Postemergence, 500 g ai/ha; visual rating on 0 to 100 scale (0 no effect, 100 complete control), approximately ten days
Answers are plain numbers.

Please give Barnyardgrass plant response rating for each item listed below.
1. Cc1nn(-c2ccc(C(F)(F)F)cc2)nc1Oc1cnn(CC(F)(F)F)c1
2. Cc1nn(-c2cncc(C(F)(F)F)c2)nc1C(=O)c1cccc(C(F)(F)F)c1
3. Cc1nn(-c2ccc(F)c(C(F)(F)F)c2)nc1Oc1ccnc(C(F)(F)F)c1
4. Cc1nn(-c2ccc(F)cc2)nc1Oc1ccnc(OCC(F)(F)F)c1
5. Cc1cc(Oc2nn(-c3ccc(F)cc3)nc2C)ccc1F

Reply:
1: 0; 2: 10; 3: 80; 4: 10; 5: 0
